experiment: Partition coefficient (Log D); assay type: physicochemical; settings: organic phase/aqueous buffer partition
observable: logD
Write no unit; give the number alone.

Could you please provide reported logD for `C[C@@H]1C(=O)N(C[C@H](Cc2ccccc2)N(Cc2ccccc2)Cc2ccccc2)[C@]1(Cc1ccccc1)C(=O)OC(C)(C)C` ? Thanks! 5.77

###

assay: In vitro metabolism in human liver microsomes; format: in vitro ADME; conditions: human, liver microsomes
observable: microsomal CLint (µL/min/mg)
Field: numeric (µL/min/mg). Do not append units.

Could you please provide reported microsomal CLint for `C[C@@H]1C(=O)N(C[C@H](Cc2ccccc2)N(Cc2ccccc2)Cc2ccccc2)[C@]1(Cc1ccccc1)C(=O)OC(C)(C)C` ? Thanks! 614

###

test: In vitro metabolism in human liver microsomes; type: in vitro ADME; details: human, liver microsomes, read-out: Metabolism t1/2
observable: half-life (min)
Field: numeric (min). Do not append units.

Could you please provide reported half-life for C[C@@H]1C(=O)N(C[C@H](Cc2ccccc2)N(Cc2ccccc2)Cc2ccccc2)[C@]1(Cc1ccccc1)C(=O)OC(C)(C)C [RGM8-51] ? Thanks! 11.3

###

assay: Aqueous solubility in simulated gastric fluid; format: physicochemical; conditions: simulated gastric conditions (pH < 5.5)
observable: solubility (µM)
Field: numeric (µM). Do not append units.

Could you please provide reported solubility for C[C@@H]1C(=O)N(C[C@H](Cc2ccccc2)N(Cc2ccccc2)Cc2ccccc2)[C@]1(Cc1ccccc1)C(=O)OC(C)(C)C [RGM8-51] ? Thanks! 198

###

target: hTRPM8 (Homo sapiens); test: Ca2+ microfluorography assay, HEK293 cells expressing hTRPM8; conditions: HEK293-hTRPM8, 100 μM menthol
Sequence (Q7Z2W7 whole entry): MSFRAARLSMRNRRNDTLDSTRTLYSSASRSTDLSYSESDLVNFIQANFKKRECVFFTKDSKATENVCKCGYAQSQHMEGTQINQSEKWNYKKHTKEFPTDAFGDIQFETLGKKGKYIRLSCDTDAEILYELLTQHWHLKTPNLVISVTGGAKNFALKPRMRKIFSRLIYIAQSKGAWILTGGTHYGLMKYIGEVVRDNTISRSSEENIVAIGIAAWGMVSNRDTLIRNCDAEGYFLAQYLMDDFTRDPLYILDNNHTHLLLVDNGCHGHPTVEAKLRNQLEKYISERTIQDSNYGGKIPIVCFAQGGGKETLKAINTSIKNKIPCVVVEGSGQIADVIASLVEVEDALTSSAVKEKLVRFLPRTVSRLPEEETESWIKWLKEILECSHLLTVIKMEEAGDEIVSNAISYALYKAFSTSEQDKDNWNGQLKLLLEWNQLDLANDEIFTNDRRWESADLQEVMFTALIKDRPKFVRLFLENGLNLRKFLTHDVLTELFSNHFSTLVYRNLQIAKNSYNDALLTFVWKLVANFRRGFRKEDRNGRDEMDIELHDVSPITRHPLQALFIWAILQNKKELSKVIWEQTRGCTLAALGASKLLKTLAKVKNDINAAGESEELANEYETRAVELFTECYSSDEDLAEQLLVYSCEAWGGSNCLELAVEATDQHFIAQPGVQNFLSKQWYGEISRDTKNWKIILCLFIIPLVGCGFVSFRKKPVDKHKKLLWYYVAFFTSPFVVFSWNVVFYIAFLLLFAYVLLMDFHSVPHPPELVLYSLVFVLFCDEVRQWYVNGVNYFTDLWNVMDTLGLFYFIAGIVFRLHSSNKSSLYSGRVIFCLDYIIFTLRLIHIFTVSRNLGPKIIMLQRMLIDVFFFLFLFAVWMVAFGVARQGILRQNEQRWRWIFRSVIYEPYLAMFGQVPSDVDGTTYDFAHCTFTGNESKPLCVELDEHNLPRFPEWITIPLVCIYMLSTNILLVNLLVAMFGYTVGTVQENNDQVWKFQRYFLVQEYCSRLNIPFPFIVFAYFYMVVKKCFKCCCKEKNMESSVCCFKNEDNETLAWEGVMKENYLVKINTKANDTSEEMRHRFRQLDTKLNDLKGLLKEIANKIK
observable: IC50
Value and unit, in that order.

Could you please provide reported IC50 for C[C@@H]1C(=O)N(C[C@H](Cc2ccccc2)N(Cc2ccccc2)Cc2ccccc2)[C@]1(Cc1ccccc1)C(=O)OC(C)(C)C [RGM8-51] ? Thanks! 1.74 µM
